Measurement type: melting point

1) Cc1cc(C)c(S(=O)(=O)N2CCC(NC3CCCC3)CC2)c(C)c1 88 to 92 °C
2) CCCCOc1ccc(S(=O)(=O)N2CCC(N3CCC(C)CC3)CC2)cc1 137 to 139 °C
3) Cc1cc(C)c(S(=O)(=O)N2CCC(N3CCC(O)CC3)CC2)c(C)c1 120 to 123 °C
4) CC1CCN(C2CCN(S(=O)(=O)c3cccnc3Cl)CC2)CC1 122 to 124 °C
5) CC1CCN(C2CCN(S(=O)(=O)c3ccc(Cl)c(Cl)c3)CC2)CC1 160 to 162 °C
6) CC1CCN(C2CCN(S(=O)(=O)c3cc(Br)cc4c3OCC4)CC2)CC1 128 to 132 °C
7) CC1CCN(C2CCN(S(=O)(=O)c3ccc(C(C)(C)C)cc3)CC2)CC1 173 to 176 °C
8) Cc1ccc(-c2cccc(S(=O)(=O)N3CCC(N4CCC(C)CC4)CC3)c2)cc1 103 to 105 °C
9) Cc1ccc(S(=O)(=O)N2CCC(N3CCC(C)CC3)CC2)cc1C 87 to 89 °C
10) CC1CCN(C2CCN(S(=O)(=O)c3cc(F)c(Br)c(F)c3)CC2)CC1 161 to 163 °C
11) CC1CCN(C2CCN(S(=O)(=O)c3cccc(-c4ccccc4C(F)(F)F)c3)CC2)CC1 110 to 112 °C
12) CC1CCN(C2CCN(S(=O)(=O)c3cccc4cnccc34)CC2)CC1 123 to 126 °C
13) CC1CCN(C2CCN(S(=O)(=O)c3ccccc3-c3ccccc3)CC2)CC1 106 to 109 °C
14) Cc1ccc(S(=O)(=O)N2CCC(N3CCC(C)CC3)CC2)cc1 139 to 142 °C
15) CC1CCN(C2CCN(S(=O)(=O)c3ccccc3)CC2)CC1 154 to 156 °C
16) CC1CCN(C2CCN(S(=O)(=O)c3cccc(Cl)c3)CC2)CC1 122 to 124 °C
17) CC1CCN(C2CCN(S(=O)(=O)c3ccc(OC(F)F)cc3)CC2)CC1 132 to 135 °C
18) CC1CCN(C2CCN(S(=O)(=O)c3sc(Cl)nc3C3CC3)CC2)CC1 139 to 141 °C
